target: Cytochrome P450 2C19 (Homo sapiens) (UniProt P33261); experiment: Cytochrome panel assay with activity outcomes; settings: recombinant CYP, pro-luciferin dealkylation, luminescence, p450-cyp2c19; series mostly up to 57.1 µM
Sequence (P33261 whole entry, looked up): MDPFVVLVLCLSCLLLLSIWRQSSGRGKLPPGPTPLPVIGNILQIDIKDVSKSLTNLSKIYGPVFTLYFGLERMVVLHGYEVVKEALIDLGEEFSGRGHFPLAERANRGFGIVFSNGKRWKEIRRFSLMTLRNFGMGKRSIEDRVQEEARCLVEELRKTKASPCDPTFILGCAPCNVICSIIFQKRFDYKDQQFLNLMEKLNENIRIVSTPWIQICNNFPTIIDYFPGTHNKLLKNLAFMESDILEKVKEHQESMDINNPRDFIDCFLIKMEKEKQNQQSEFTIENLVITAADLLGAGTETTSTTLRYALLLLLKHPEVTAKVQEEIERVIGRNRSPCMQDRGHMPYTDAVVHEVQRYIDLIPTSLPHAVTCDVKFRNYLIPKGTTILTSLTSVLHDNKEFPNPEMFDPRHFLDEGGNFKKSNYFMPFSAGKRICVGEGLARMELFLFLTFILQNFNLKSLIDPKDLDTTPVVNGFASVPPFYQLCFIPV
Among all 16,000 compounds or so, about 5,800 (36%) were called active. Roughly 23% stayed inconclusive and do not appear here. Calls follow the shape of the dose curve; as a rule, active = well fitted curve in the direction sought with a large enough effect; inconclusive = small, poorly fitted or top-dose-only effect, or effect the other way; inactive = no such curve, though single readings can be large or run the other way. This is one part of the list.
Write down the outcome that applies. Available outcomes: active, inactive

Examples with answers:
Ask | Give the logged outcome of this assay for the following molecule: Cc1ccccc1NC(=O)CN1CCC(n2nnc3ccccc32)CC1
Reply | active

Ask | Give the logged outcome of this assay for the following molecule: O=C(CN1C(=O)C2C3C=CC(C3)C2C1=O)Nc1ccc(C(=O)O)cc1 (stereo unspecified)
Reply | inactive

Ask | Give the logged outcome of this assay for the following molecule: CC1CCCC(n2c(=S)[nH]c3ccccc3c2=O)C1C (stereo unspecified)
Reply | active

New cases:
Ask | Give the logged outcome of this assay for the following molecule: CCc1ccccc1NC(=O)c1nnn(CC(=O)Nc2ccccc2C)c1N
Reply | inactive

Ask | Give the logged outcome of this assay for the following molecule: CCOC(=O)NCN1C(=O)C2C3C=CC(C3)C2C1=O (stereo unspecified)
Reply | active

Ask | Give the logged outcome of this assay for the following molecule: CS(=O)(=O)Nc1cccc(-c2nc(NCCN3CCOCC3)c3ccccc3n2)c1
Reply | inactive

Ask | Give the logged outcome of this assay for the following molecule: CC(c1ccc(Cl)cc1)n1c(-c2ccc3ccccc3n2)n[nH]c1=S (stereo unspecified)
Reply | active

Ask | Give the logged outcome of this assay for the following molecule: Cc1cc2c(cc1C)-c1nnc(-c3ccc4ccccc4n3)n1C(C)(C)C2
Reply | inactive

Ask | Give the logged outcome of this assay for the following molecule: CN(C)CC[C@H](c1ccc(Cl)cc1)c1ccccn1
Reply | inactive

Ask | Give the logged outcome of this assay for the following molecule: O=C(c1ccc(F)cc1)C1CCN(CCn2c(=S)[nH]c3ccccc3c2=O)CC1
Reply | inactive

Ask | Give the logged outcome of this assay for the following molecule: Cc1cccc(CNc2nc(-c3cccc(NS(C)(=O)=O)c3)nc3ccccc23)c1
Reply | active

###

target: Cytochrome P450 2C19 (Homo sapiens) (UniProt P33261); assay: Cytochrome panel assay with activity outcomes; details: recombinant CYP, pro-luciferin dealkylation, luminescence, p450-cyp2c19; series mostly up to 57.1 µM
Screen size: about 16,000 compounds; about 5,800 (36%) were called active. Not shown: some 23% with an inconclusive outcome. The call rests on the fitted dose curve; in most records, active means well fitted curve in the direction sought with a large enough effect; inconclusive means small, poorly fitted or top-dose-only effect, or effect the other way; inactive means no such curve, though single readings can be large or run the other way. The list shows a part of the results.
Write down the outcome that applies. Available outcomes: active, inactive

Ask | Give the logged outcome of this assay for the following compound: Cc1c(C)n(C(=O)CN2CCC(C)CC2)c2ccccc12
Reply | active

New cases:
Ask | Give the logged outcome of this assay for the following compound: CN(C)c1ncnc2ccc(-c3ccccc3C#N)cc12
Reply | inactive

Ask | Give the logged outcome of this assay for the following compound: CC(C)CCOc1ccc(NC(=O)C2OC3OC(C)(C)OC3C3OC(C)(C)OC23)cc1 (stereo unspecified)
Reply | inactive

Ask | Give the logged outcome of this assay for the following compound: Cc1nc2ncnn2c(C)c1CCC(=O)NCCC1=CCCCC1
Reply | inactive

Ask | Give the logged outcome of this assay for the following compound: c1ccc(C(c2ccccc2)N2CCC3(CCNCC3)CC2)cc1
Reply | active

Ask | Give the logged outcome of this assay for the following compound: COc1ccccc1CN1CCC2(CC1)CCN(S(=O)(=O)c1ccccc1)CC2
Reply | inactive

Ask | Give the logged outcome of this assay for the following compound: COc1ccc2oc(=O)c(NC(=O)C3CCCCC3)cc2c1
Reply | inactive

Ask | Give the logged outcome of this assay for the following compound: COc1cc2cc3c4cc(OC)c(OC)cc4cc[n+]3c(C)c2cc1OC
Reply | inactive

Ask | Give the logged outcome of this assay for the following compound: COc1ccccc1CNc1ncncc1-c1ccc(C(=O)N(C)C)cc1
Reply | inactive

Ask | Give the logged outcome of this assay for the following compound: CCOC(=O)c1c(C)oc2c1cc(O)c1ccccc12
Reply | active

Ask | Give the logged outcome of this assay for the following compound: CN(Cc1ccco1)c1ncnc2ccc(-c3ccccc3Cl)cc12
Reply | active

Ask | Give the logged outcome of this assay for the following compound: CNc1ncnc2ccc(-c3ccccc3C#N)cc12
Reply | inactive

Ask | Give the logged outcome of this assay for the following compound: Cc1cc(C)c(NC(=O)C(C)Sc2nnc(-c3ccco3)n2-c2ccccc2)c(C)c1 (stereo unspecified)
Reply | active

Ask | Give the logged outcome of this assay for the following compound: CNC(=O)[C@@H]1O[C@@H](n2cnc3c(NCc4ccc(N)cc4)ncnc32)[C@@H](O)[C@H]1O
Reply | inactive

Ask | Give the logged outcome of this assay for the following compound: Cc1cc(NC(=O)C2CCCCC2)nc2c1c(=O)oc1ccccc12
Reply | active

Ask | Give the logged outcome of this assay for the following compound: O=C(CSc1nnc2sc3ccccc3n12)NCc1ccco1
Reply | active
